# PROTOCOL TEXT: Cytotoxicity against human HuH7 cells after 72 hrs by Hoechst 33342 staining-based confocal microscopic analysis
# Format: cell-based, Huh-7
MEASURE NAME: CC50 at 72 h (µM)

>>> measured_value("Nc1nc2ccccc2n1CCOc1ccc(Cl)cc1")
8.9
>>> measured_value("CCc1ccc(C(=O)Cn2c(=N)n(C)c3ccccc32)cc1")
9.5
>>> measured_value("Br.Cn1c(=N)n(CCOc2ccc(Cl)cc2)c2cc(Cl)ccc21")
9.84
>>> measured_value("Br.Cn1c(=N)n(CCOc2ccc(Cl)cc2)c2c(Cl)cccc21")
4.3
>>> measured_value("Br.Cc1cccc2c1n(C)c(=N)n2CCOc1ccc(Cl)cc1")
15
>>> measured_value("Br.Cn1c(=N)n(CCOc2ccc(Cl)cc2)c2ccccc21")
7.6
>>> measured_value("Br.Cn1c(=N)n(CCOc2ccc(Cl)cc2)c2ccc(Cl)cc21")
4.1
>>> measured_value("Br.Cn1c(=N)n(CCOc2ccc(Cl)cc2)c2cccc(Cl)c21")
1.5
>>> measured_value("Cn1c(=N)n(CC(=O)c2ccc3ccccc3c2)c2ccccc21")
4.5
>>> measured_value("Cn1c(=N)n(Cc2ccc(-c3ccccc3)cc2)c2ccccc21")
2.6
>>> measured_value("CCc1ccc(Cn2c(=N)n(C)c3ccccc32)cc1")
5.8
>>> measured_value("CCC(=O)Cn1c(=N)n(CCOc2ccc(Cl)cc2)c2ccccc21")
8.5
>>> measured_value("CCc1ccc(OCCn2c(=N)n(C)c3ccccc32)cc1")
8.9
>>> measured_value("Br.Cc1ccc2c(c1)n(CCOc1ccc(Cl)cc1)c(=N)n2C")
10.6
>>> measured_value("Cn1c(=N)n(Cc2ccc(C(C)(C)C)cc2)c2ccccc21")
5.9
>>> measured_value("Br.Cc1ccc2c(c1)n(C)c(=N)n2CCOc1ccc(Cl)cc1")
2.9
>>> measured_value("Cn1c(=N)n(CCOc2ccc(-c3ccccc3)cc2)c2ccccc21")
3.4
>>> measured_value("CCc1cn2c3ccccc3n(CCOc3ccc(Cl)cc3)c2n1")
20
>>> measured_value("Cn1c(=N)n(CCOc2ccc(C(C)(C)C)cc2)c2ccccc21")
2.8
>>> measured_value("Cn1c(=N)n(CC(=O)c2ccc(Cl)cc2)c2ccccc21")
20
>>> measured_value("Clc1ccc(OCCN2C3=NCCN3c3ccccc32)cc1")
20
>>> measured_value("Cn1c(=N)n(CC(=O)c2ccc(C(C)(C)C)cc2)c2ccccc21")
8.9

====

# PROTOCOL TEXT: Selectivity index, ratio of CC50 for human HuH7 cells to EC50 for cell culture derived Hepatitis C virus
# Type: toxicity, cell-based, Huh-7
# SETUP CONDITIONS: read-out: Ratio CC50/EC50
Entries whose selectivity ratio is below 300 take 1; entries at or above 300 take -1.

>>> assigned_label("Br.Cn1c(=N)n(CCOc2ccc(Cl)cc2)c2cccc(Cl)c21")
-1
>>> assigned_label("CCc1ccc(C(=O)Cn2c(=N)n(C)c3ccccc32)cc1")
1
>>> assigned_label("Cn1c(=N)n(CC(=O)c2ccc3ccccc3c2)c2ccccc21")
1
>>> assigned_label("Br.Cc1ccc2c(c1)n(C)c(=N)n2CCOc1ccc(Cl)cc1")
-1
>>> assigned_label("Br.Cn1c(=N)n(CCOc2ccc(Cl)cc2)c2ccccc21")
-1
>>> assigned_label("CCc1ccc(Cn2c(=N)n(C)c3ccccc32)cc1")
1
>>> assigned_label("Cn1c(=N)n(CC(=O)c2ccc(C(C)(C)C)cc2)c2ccccc21")
1
>>> assigned_label("Br.Cn1c(=N)n(CCOc2ccc(Cl)cc2)c2ccc(Cl)cc21")
-1
>>> assigned_label("Br.Cc1cccc2c1n(C)c(=N)n2CCOc1ccc(Cl)cc1")
1
>>> assigned_label("Cn1c(=N)n(Cc2ccc(-c3ccccc3)cc2)c2ccccc21")
1
>>> assigned_label("Br.Cc1ccc2c(c1)n(CCOc1ccc(Cl)cc1)c(=N)n2C")
1
>>> assigned_label("Cn1c(=N)n(CCOc2ccc(C(C)(C)C)cc2)c2ccccc21")
1
>>> assigned_label("Cn1c(=N)n(Cc2ccc(C(C)(C)C)cc2)c2ccccc21")
1
>>> assigned_label("CCc1ccc(OCCn2c(=N)n(C)c3ccccc32)cc1")
1
>>> assigned_label("Cn1c(=N)n(CC(=O)c2ccc(Cl)cc2)c2ccccc21")
1
>>> assigned_label("Cn1c(=N)n(CCOc2ccc(-c3ccccc3)cc2)c2ccccc21")
1
>>> assigned_label("Br.Cn1c(=N)n(CCOc2ccc(Cl)cc2)c2cc(Cl)ccc21")
1
>>> assigned_label("Br.Cn1c(=N)n(CCOc2ccc(Cl)cc2)c2c(Cl)cccc21")
-1

====

# PROTOCOL TEXT: Half life in human liver microsomes at 2 uM
# Assay type: ADME
MEASURE NAME: half-life at 2 µM

>>> measured_value("Br.Cc1ccc2c(c1)n(CCOc1ccc(Cl)cc1)c(=N)n2C")
"> 1 h"
>>> measured_value("Br.Cn1c(=N)n(CCOc2ccc(Cl)cc2)c2cc(Cl)ccc21")
"> 1 h"
>>> measured_value("Br.Cn1c(=N)n(CCOc2ccc(Cl)cc2)c2ccc(Cl)cc21")
"> 1 h"
>>> measured_value("Br.Cc1cccc2c1n(C)c(=N)n2CCOc1ccc(Cl)cc1")
"> 1 h"
>>> measured_value("Br.Cc1ccc2c(c1)n(C)c(=N)n2CCOc1ccc(Cl)cc1")
"> 1 h"
>>> measured_value("Br.Cn1c(=N)n(CCOc2ccc(Cl)cc2)c2cccc(Cl)c21")
"> 1 h"
>>> measured_value("Br.Cn1c(=N)n(CCOc2ccc(Cl)cc2)c2ccccc21")
"> 1 h"
>>> measured_value("Br.Cn1c(=N)n(CCOc2ccc(Cl)cc2)c2c(Cl)cccc21")
"> 1 h"

====

# PROTOCOL TEXT: Half life in rat liver microsomes at 2 uM
# Type: ADME
MEASURE NAME: half-life at 2 µM

>>> measured_value("Br.Cn1c(=N)n(CCOc2ccc(Cl)cc2)c2cc(Cl)ccc21")
"> 1 h"
>>> measured_value("Br.Cn1c(=N)n(CCOc2ccc(Cl)cc2)c2cccc(Cl)c21")
"> 1 h"
>>> measured_value("Br.Cn1c(=N)n(CCOc2ccc(Cl)cc2)c2ccc(Cl)cc21")
"> 1 h"

Where do these numbers come from? They come from ChEMBL document CHEMBL3232983.
